Item-by-item account of pIC50
Target: type 2 human 5α-reductase (HRED2) (Homo sapiens)
Sequence (P31213 whole entry): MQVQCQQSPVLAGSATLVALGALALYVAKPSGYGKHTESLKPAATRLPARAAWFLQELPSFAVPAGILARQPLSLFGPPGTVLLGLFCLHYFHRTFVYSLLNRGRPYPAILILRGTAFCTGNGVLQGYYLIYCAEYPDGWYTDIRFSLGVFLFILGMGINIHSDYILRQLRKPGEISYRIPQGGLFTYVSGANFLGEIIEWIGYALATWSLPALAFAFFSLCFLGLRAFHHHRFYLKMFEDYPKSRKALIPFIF
Test: Cell free assay of 5α-reductase, microsomes of rat 1A cells expressing type 2 isoenzyme (HRED2);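 note: labeled testosterone and its product dihydrotestosterone measured in microsomal reaction extracts via thin layer chromatography plus radioanalytic scanning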
Assay type: biochemical
Set-up: expressed in transfected cells; host or cells: rat 1A cells infected with pMV7 retrovirus; microsomes
Conditions: read-out: IC50, type 2 isoenzyme
pIC50: −log10 of the molar value.

Fill in the blank: the reported pIC50 of C=CCc1ccc(O)c(OC)c1 [Eugenol] is ____.
< 4.00

Quick one: pIC50 of C[C@@H]1O[C@@H](OC[C@H]2O[C@@H](Oc3c(-c4ccc(O)c(O)c4)oc4cc(O)cc(O)c4c3=O)[C@H](O)[C@@H](O)[C@@H]2O)[C@H](O)[C@H](O)[C@H]1O [Rutin] ?
< 4.00

Returns the measured pIC50 for the input compound. Input: COc1cc(/C=C/CO)ccc1O [Coniferol]
< 4.00

Attribution: patent US20030144346A1
